Assay name: CHI Log D procedure
Assay type: physicochemical
Condition summary: pH 7.4
Property measured: logD

Form field: reported logD of CC[C@H](C)[C@@H]1NC(=O)[C@H](CC(=O)O)NC(=O)[C@]2(CC=CCCCC3(CCCC=CCCCCCC[C@@](C)(C(=O)N[C@@H](Cc4ccccc4)C(=O)N[C@@H](Cc4csc5ccccc45)C(=O)N[C@@H](CCC(N)=O)C(N)=O)NC(=O)[C@H](CCC(N)=O)NC(=O)[C@H](Cc4ccccc4)NC(=O)[C@H](C)NC(=O)[C@H](C)NC(=O)[C@H](CN(CC)CC(=O)O)NC(=O)[C@H](CC(=O)O)NC3=O)NC1=O)CCCN2C(C)=O (some centres unmarked) [I-609]
2.5

For CC[C@H](C)[C@@H]1NC(=O)[C@H](CC(=O)O)NC(=O)[C@]2(CC=CCCCC3(CCCC=CCCCCCC[C@@](C)(C(=O)N[C@@H](Cc4ccccc4)C(=O)N[C@@H](Cc4csc5ccccc45)C(=O)N[C@@H](CCC(N)=O)C(N)=O)NC(=O)[C@H](CCC(N)=O)NC(=O)[C@H](Cc4ccccc4)NC(=O)[C@H](C)NC(=O)[C@H](C)NC(=O)[C@H](CN(CC(=O)O)CC(F)(F)F)NC(=O)[C@H](CC(=O)O)NC3=O)NC1=O)CCCN2C(C)=O (some centres unmarked) [I-611] then?
2.6

For CC(=O)N1CCC[C@]12CC=CCCCC1(CCCC=CCCCOC(=O)N3CC[C@@](C(=O)N[C@@H](Cc4ccsc4)C(=O)N[C@@H](Cc4csc5ccccc45)C(=O)N[C@@H](CCC(N)=O)C(N)=O)(C3)NC(=O)[C@H](CC(N)=O)NC(=O)[C@H](Cc3ccccc3)NC(=O)[C@H](C)NC(=O)[C@H](C)NC(=O)[C@H](CN(CC(=O)O)CC(F)(F)F)NC(=O)[C@H](CC(=O)O)NC1=O)NC(=O)[C@H](CC(C)(C)C)NC(=O)[C@H](CC(=O)O)NC2=O (single isomer, unassigned) [I-762] then?
2.2

For CC(=O)N1CCC[C@]12CC=CCCCC1(CCCC=CCCCOC(=O)N3CC[C@@](C(=O)N[C@@H](Cc4ccsc4)C(=O)N[C@@H](Cc4csc5ccccc45)C(=O)N[C@@H](CCC(N)=O)C(N)=O)(C3)NC(=O)[C@H](CC(N)=O)NC(=O)[C@H](Cc3ccccc3)NC(=O)[C@H](C)NC(=O)[C@H](C)NC(=O)[C@H](CN(CC(=O)O)CC(F)(F)F)NC(=O)[C@H](CC(=O)O)NC1=O)NC(=O)[C@H](CC(C)(C)C)NC(=O)[C@H](CC(=O)O)NC2=O (some centres unmarked) [I-761] then?
2.2

For CC(=O)N1CCC[C@]12CC=CCCCC1(CCCC=CCCCOC(=O)N3CC[C@@](C(=O)N[C@@H](Cc4ccsc4)C(=O)N[C@@H](Cc4csc5ccccc45)C(=O)N[C@@H](CCC(N)=O)C(N)=O)(C3)NC(=O)[C@H](CC(N)=O)NC(=O)[C@H](Cc3ccccc3)NC(=O)[C@H](C)NC(=O)[C@H](C)NC(=O)[C@H](CC(=O)O)NC(=O)[C@H](CC(=O)O)NC1=O)NC(=O)[C@H](CC(C)(C)C)NC(=O)[C@H](CC(=O)O)NC2=O (some centres unmarked) [I-687] then?
2.0

----------
Target desc: full-length beta-Catenin (Uniprot ID P35222) (Homo sapiens, UniProt P35222)
Construct: 10 nM full-length beta-Catenin (Uniprot ID P35222)
Sequence (P35222 whole entry): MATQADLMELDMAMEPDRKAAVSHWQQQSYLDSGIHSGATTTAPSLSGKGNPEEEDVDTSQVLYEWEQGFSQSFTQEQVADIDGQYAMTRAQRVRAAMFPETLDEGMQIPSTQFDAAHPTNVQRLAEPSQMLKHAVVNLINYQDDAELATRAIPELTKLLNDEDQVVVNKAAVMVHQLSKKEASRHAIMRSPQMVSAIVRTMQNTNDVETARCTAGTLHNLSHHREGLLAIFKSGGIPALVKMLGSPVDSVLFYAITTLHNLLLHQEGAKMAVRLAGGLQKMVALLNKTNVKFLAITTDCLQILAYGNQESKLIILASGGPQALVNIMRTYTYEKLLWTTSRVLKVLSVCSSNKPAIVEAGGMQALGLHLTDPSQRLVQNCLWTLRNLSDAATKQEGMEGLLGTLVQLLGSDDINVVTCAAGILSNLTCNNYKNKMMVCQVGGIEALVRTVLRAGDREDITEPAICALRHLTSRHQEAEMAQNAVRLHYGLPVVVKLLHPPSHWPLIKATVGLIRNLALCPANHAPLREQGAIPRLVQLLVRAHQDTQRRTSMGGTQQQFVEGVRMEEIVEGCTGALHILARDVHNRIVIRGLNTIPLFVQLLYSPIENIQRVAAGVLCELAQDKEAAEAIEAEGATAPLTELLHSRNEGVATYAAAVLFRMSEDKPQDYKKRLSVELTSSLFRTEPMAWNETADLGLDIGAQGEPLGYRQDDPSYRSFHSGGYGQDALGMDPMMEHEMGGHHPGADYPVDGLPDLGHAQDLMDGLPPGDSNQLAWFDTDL
Assay name: Fluorescence polarization IC50 (beta-catenin / 5FAM-TCF4 10-53 competition)
Type: binding
Condition summary: beta-Catenin FP IC50, fluorescence polarization
What IC50 was measured for each of the following?
Dear colleague, please return just the value in nM, with no unit written.

Form field: reported IC50 of CC(=O)N1CCC[C@]12CC=CCCCC1(CCCC=CCCCOC(=O)N3CC[C@@](C(=O)N[C@@H](Cc4ccccc4Cl)C(=O)N[C@@H](Cc4csc5ccccc45)C(=O)N[C@@H](CC(C)C)C(N)=O)(C3)NC(=O)[C@H](CC(C)C)NC(=O)[C@H](Cc3ccccc3)NC(=O)[C@H](C)NC(=O)[C@H](C)NC(=O)[C@H](CC(=O)O)NC(=O)[C@H](CC(=O)O)NC1=O)NC(=O)[C@H](CC(N)=O)NC(=O)[C@H](CC(=O)O)NC2=O (some centres unmarked)
388

For CC(=O)N1CCC[C@]12CC=CCCCC1(CCCC=CCCCOC(=O)N3CC[C@@](C(=O)N[C@@H](Cc4ccccc4Cl)C(=O)N[C@@H](Cc4csc5ccccc45)C(=O)N[C@@H](CC(C)C)C(N)=O)(C3)NC(=O)[C@H](CC(C)C)NC(=O)[C@H](Cc3ccccc3)NC(=O)[C@H](C)NC(=O)[C@H](C)NC(=O)[C@H](CC(=O)O)NC(=O)[C@H](CC(=O)O)NC1=O)NC(=O)[C@H](CO)NC(=O)[C@H](CC(=O)O)NC2=O (some centres unmarked) then?
389

----------
What IC50 was measured for each of the following?
Target desc: full-length beta-Catenin (Uniprot ID P35222) (Homo sapiens, UniProt P35222)
Construct: 10 nM full-length beta-Catenin (Uniprot ID P35222)
Assay name: Fluorescence polarization IC50 (beta-catenin / 5FAM-TCF4 10-53 competition)
Type: binding
Condition summary: fluorescence polarization; read-out: beta-Catenin FP IC50
Dear colleague, please return just the value in nM, with no unit written.

Form field: reported IC50 of CC(=O)N1CCC[C@]12CC=CCCCC1(CCCC=CCCCCCC[C@@](C)(C(=O)N[C@@H](Cc3ccccc3)C(=O)N[C@@H](Cc3csc4ccccc34)C(=O)NC(Cc3cncn3C)C(N)=O)NC(=O)[C@H](CC(N)=O)NC(=O)[C@H](Cc3ccccc3)NC(=O)[C@H](C)NC(=O)[C@H](C)NC(=O)[C@H](CCC(=O)O)NC(=O)[C@H](CC(=O)O)NC1=O)NC(=O)[C@H](C)NC(=O)[C@H](CC(=O)O)NC2=O (single isomer, unassigned) [I-481]
42

For CC(=O)N1CCC[C@]12CCCCCCC1(CCCCCCCOC(=O)N3CC[C@@](C(=O)N[C@@H](Cc4ccsc4)C(=O)N[C@@H](Cc4csc5ccccc45)C(=O)N[C@@H](CCC(N)=O)C(N)=O)(C3)NC(=O)[C@H](CC(C)C)NC(=O)[C@H](Cc3ccccc3)NC(=O)[C@H](C)NC(=O)[C@H](C)NC(=O)[C@H](CC(=O)O)NC(=O)[C@H](CC(=O)O)NC1=O)NC(=O)[C@H](CC(C)(C)C)NC(=O)[C@H](CC(=O)O)NC2=O (some centres unmarked) then?
60

For CC(=O)N1CCC[C@]12CC=CCCCC1(CCCC=CCCCOC(=O)N3CC[C@@](C(=O)N[C@@H](Cc4ccsc4)C(=O)N[C@@H](Cc4csc5ccccc45)C(=O)N[C@@H](Cc4c[nH]cn4)C(N)=O)(C3)NC(=O)[C@H](CC(N)=O)NC(=O)[C@H](Cc3ccccc3)NC(=O)[C@H](C)NC(=O)[C@H](C)NC(=O)[C@H](CCC(=O)O)NC(=O)[C@H](CC(=O)O)NC1=O)NC(=O)[C@H](CC(C)(C)C)NC(=O)[C@H](CC(=O)O)NC2=O (some centres unmarked) [I-697] then?
5

For CC(=O)N1CCC[C@]12CC=CCCCC1(CCCC=CCCCOC(=O)N3CC[C@@](C(=O)N[C@@H](Cc4ccsc4)C(=O)N[C@@H](Cc4csc5ccccc45)C(=O)N[C@@H](CCC(N)=O)C(N)=O)(C3)NC(=O)[C@H](CC(C)C)NC(=O)[C@H](Cc3ccccc3)NC(=O)[C@H](C)NC(=O)[C@H](C)NC(=O)[C@H](CCN(CC(=O)O)C(=O)Cc3ccc(C(F)(F)F)cc3)NC(=O)[C@H](CC(=O)O)NC1=O)NC(=O)[C@H](CC(C)(C)C)NC(=O)[C@H](CC(=O)O)NC2=O (some centres unmarked) then?
27

For CC(=O)N1CCC[C@]12CC=CCCCC1(CCCC=CCCCOC(=O)N3CC[C@@](C(=O)N[C@@H](Cc4cccs4)C(=O)N[C@@H](Cc4csc5ccccc45)C(=O)N[C@@H](CCO)C(N)=O)(C3)NC(=O)[C@H](CC(N)=O)NC(=O)[C@H](Cc3ccccc3)NC(=O)[C@H](C)NC(=O)[C@H](CCCCNC(C)C)NC(=O)[C@H](CCC(N)=O)NC(=O)[C@H](CC(=O)O)NC1=O)NC(=O)[C@H](CC1CCCCC1)NC(=O)[C@H](CC(N)=O)NC2=O (some centres unmarked) then?
2330

----------
Assay name: CHI Log D procedure
Format: physicochemical
Condition summary: pH 7.4
Property measured: CHI Log D
Respond with the number and no other words.

Form field: reported CHI Log D of CC(=O)N1CCC[C@]12CC=CCCCC1(CCCC=CCCCCCC[C@@](C)(C(=O)N[C@@H](Cc3ccsc3)C(=O)N[C@@H](Cc3csc4ccccc34)C(N)=O)NC(=O)[C@H](CC(N)=O)NC(=O)[C@H](Cc3ccccc3)NC(=O)[C@H](C)NC(=O)[C@H](C)NC(=O)[C@H](CCC(=O)O)NC(=O)[C@H](CC(=O)O)NC1=O)NC(=O)[C@H](CC(C)(C)C)NC(=O)[C@H](CC(=O)O)NC2=O (stereo partly shown) [I-718]
2.765

For CC(=O)N1CCC[C@]12CC=CCCCC1(CCCC=CCCCCCC[C@@](C)(C(=O)N[C@@H](Cc3ccccc3)C(=O)N[C@@H](Cc3csc4ccccc34)C(=O)N[C@@H](CCC(N)=O)C(N)=O)NC(=O)[C@H](CC(N)=O)NC(=O)[C@H](Cc3ccccc3)NC(=O)[C@H](C)NC(=O)[C@H](C)NC(=O)[C@H](CC(=O)O)NC(=O)[C@H](CC(=O)O)NC1=O)NC(=O)[C@H](C)NC(=O)[C@H](CC(=O)O)NC2=O (stereo partly shown) [I-344] then?
1.977

For COc1cccc(C[C@H](NC(=O)[C@]23CCN(C2)C(=O)OCC=CCCCCCC[C@@](C)(NC(=O)[C@H](C)NC(=O)[C@H](CC(=O)O)NC(=O)[C@H](Cc2ccccc2)NC(C)=O)C(=O)N[C@@H](CC(=O)O)C(=O)N[C@@H](CC(=O)O)C(=O)N[C@@H](C)C(=O)N[C@@H](C)C(=O)N[C@@H](Cc2ccccc2)C(=O)N[C@@H](C(C)C)C(=O)N3)C(=O)N[C@@H](Cc2c[nH]c3ccccc23)C(=O)N[C@@H](CCC(N)=O)C(N)=O)c1 (single isomer, unassigned) then?
1.274

For CC(=O)N1CCC[C@]12CC=CCCCC1(CCCC=CCCCCCC[C@@](C)(C(=O)N[C@@H](Cc3ccc(C(=O)O)cc3)C(=O)N[C@@H](Cc3csc4ccccc34)C(=O)N[C@@H](CCC(N)=O)C(N)=O)NC(=O)[C@H](C(C)C)NC(=O)[C@H](Cc3ccccc3)NC(=O)[C@H](C)NC(=O)[C@H](C)NC(=O)[C@H](CC(=O)O)NC(=O)[C@H](CC(=O)O)NC1=O)NC(=O)[C@H](C)NC(=O)[C@H](CC(=O)O)NC2=O (stereo partly shown) [I-339] then?
1.328

For CC(=O)N1CCC[C@]12CC=CCCCC1(CCCC=CCOC(=O)N(C)CCC[C@@](C)(C(=O)N[C@@H](Cc3ccccc3)C(=O)N[C@@H](Cc3c[nH]c4ccccc34)C(=O)N[C@@H](CCC(N)=O)C(N)=O)NC(=O)[C@H](C(C)C)NC(=O)[C@H](Cc3ccccc3)NC(=O)[C@H](C)NC(=O)[C@H](C)NC(=O)[C@H](CCC(=O)O)NC(=O)[C@H](CC(=O)O)NC1=O)NC(=O)[C@H](C)NC(=O)[C@H](CC(=O)O)NC2=O (stereo partly shown) [I-130] then?
1.346

For CC(=O)N1CCC[C@]12CC=CCCCC1(CCCC=CCCCOC(=O)N3CC[C@@](C(=O)N[C@@H](Cc4ccsc4)C(=O)N[C@@H](Cc4csc5ccccc45)C(N)=O)(C3)NC(=O)[C@H](CC(N)=O)NC(=O)[C@H](Cc3ccccc3)NC(=O)[C@H](C)NC(=O)[C@H](C)NC(=O)[C@H]([C@@H](C)O)NC(=O)[C@H](CC(=O)O)NC1=O)NC(=O)[C@H](CC(C)(C)C)NC(=O)[C@H](CC(=O)O)NC2=O (stereo partly shown) [I-860] then?
2.722

For CC(=O)N[C@@H](Cc1ccccc1)C(=O)N[C@@H](CC(=O)O)C(=O)N[C@@H](C)C(=O)N[C@]1(C)CCCCCCC=CCOC(=O)N2CC[C@@](C(=O)N[C@@H](Cc3ccccc3)C(=O)N[C@@H](Cc3c[nH]c4ccccc34)C(=O)N[C@@H](CCC(N)=O)C(N)=O)(C2)NC(=O)[C@H](C(C)C)NC(=O)[C@H](Cc2ccccc2)NC(=O)[C@H](C)NC(=O)[C@H](C)NC(=O)[C@H](CCCC(=O)O)NC(=O)[C@H](CC(=O)O)NC1=O then?
1.378

For CC(=O)N1CCC[C@]12CC=CCCCC1(CCCC=CCCCCCC[C@@](C)(C(=O)N[C@@H](Cc3ccccc3)C(=O)N[C@@H](Cc3csc4ccccc34)C(=O)N[C@@H](CCC(N)=O)C(N)=O)NC(=O)[C@H](C(C)C)NC(=O)[C@H](Cc3ccccn3)NC(=O)[C@H](C)NC(=O)[C@H](C)NC(=O)[C@H](CCC(=O)O)NC(=O)[C@H](CC(=O)O)NC1=O)NC(=O)[C@H](C)NC(=O)[C@H](CC(=O)O)NC2=O (stereo partly shown) [I-387] then?
2.136

For CC(=O)N[C@@H](Cc1ccccc1)C(=O)N[C@@H](CC(=O)O)C(=O)N[C@@H](C)C(=O)N[C@]1(C)CCCCCCC=CCOC(=O)N2CC[C@@](C(=O)N[C@@H](Cc3ccccc3)C(=O)N[C@@H](Cc3c[nH]c4ccccc34)C(=O)N[C@@H](CCC(N)=O)C(N)=O)(C2)NC(=O)[C@H](C(C)C)NC(=O)[C@H](Cc2ccc3ccccc3c2)NC(=O)[C@H](C)NC(=O)[C@H](C)NC(=O)[C@H](CC(=O)O)NC(=O)[C@H](CC(=O)O)NC1=O then?
1.435

For CC(=O)N1CCC[C@]12CC=CCCCC1(CCCC=CCCCCOC(=O)N3CC[C@@](C(=O)N[C@@H](Cc4ccccc4)C(=O)N[C@@H](Cc4csc5ccccc45)C(=O)N[C@@H](CCC(N)=O)C(N)=O)(C3)NC(=O)[C@H](CC(N)=O)NC(=O)[C@H](Cc3ccccc3)NC(=O)[C@H](C)NC(=O)[C@H](C)NC(=O)[C@H](CCC(=O)O)NC(=O)[C@H](CC(=O)O)NC1=O)NC(=O)[C@H](C)NC(=O)[C@H](CC(=O)O)NC2=O (stereo partly shown) [I-463] then?
1.785
